Experiment summary: Partition equilibrium under the influence of salinity (NaCl), glass reactor, neutralization titration
Assay type: physicochemical
Condition info: Salinity 18.0 (%, m · m^−1) NaCl
Experimental: The variation in salinity (and its effect on acidic species) is due to the large variation in salinity found between the portions of bottom-hole water, middle-well water and surface water. Thus, systems with salinity (i.e., NaCl) between 3.5 and 30% (m·v^−1) were tested in a glass reactor, and neutralization titration was performed (in triplicate analysis), as previously described. […]
Reported values of Migration for individual entries

In the examples that follow, each entry is paired with its recorded Migration.
                                   compound       result
0  O=C(O)CCCCc1ccccc1 [5-Phenylpentanoic Acid, 5-phenylpentanoic acid]  15.4 %, mol
1  O=C(O)c1ccccc1 [Benzoic Acid, benzoic acid]  41.0 %, mol
2  O=C(O)C(C1CCCCC1)C1CCCCC1 [Dicyclohexylacetic Acid, dicyclohexylacetic acid]  19.9 %, mol

stdin: Look at this compound and give its reported Migration. CCCCC(=O)O [Pentanoic Acid, pentanoic acid]
stdout: 40.0 %, mol

stdin: // repeat for O=C(O)CCCCC1CCCCC1 [Cyclohexanepentanoic Acid, cyclohexanepentanoic acid] and report
stdout: 5.5 %, mol

---

Experiment summary: Partition equilibrium with addition of calcium and strontium salts to the aqueous phase
Format: physicochemical
Condition info: Absence of ions; salinity 3.5%
Listing: Migration of selected compounds

>>> df
            smiles_structure       result
0  O=C(O)C(C1CCCCC1)C1CCCCC1  22.1 %, mol
1             O=C(O)c1ccccc1  82.0 %, mol

stdin: Tell me the measured Migration of O=C(O)CCCCC1CCCCC1 , please.
stdout: 4.9 %, mol

stdin: What do you get for O=C(O)CCCCc1ccccc1 ?
stdout: 10.4 %, mol

stdin: How about this compound: CCCCC(=O)O
stdout: 77.0 %, mol

---

Experiment summary: Partition equilibrium in reactor pressurized with CO2, in presence and absence of alkalinity (NaHCO3, Na2CO3), back titration
Condition info: NaHCO3; 25° C. and 1.0 MPa CO2
Readout type: Migration (% mol)

>>> print(df.to_string())
     smiles_structure  readout_type  quantitative_readout
0          CCCCC(=O)O     Migration                   100
1      O=C(O)c1ccccc1     Migration                  93.3
2  O=C(O)CCCCc1ccccc1     Migration                 100.0
3  O=C(O)CCCCC1CCCCC1     Migration                 100.0

---

Experiment summary: Partition equilibrium in reactor pressurized with CO2, in presence and absence of alkalinity (NaHCO3, Na2CO3), back titration
Condition info: NaHCO3; 25° C. and 0.1 MPa
Readout type: Migration (% mol)

In [3]: df
Out[3]:
     smiles_structure  unit_spec  quantitative_readout
0  O=C(O)CCCCC1CCCCC1      % mol                  82.7
1      O=C(O)c1ccccc1      % mol                  53.6

A = CCCCC(=O)O
B = O=C(O)CCCCc1ccccc1
stdin: Please compare: A and B . Report which one has the smaller Migration value. Respond using the label that marks the chosen record.
stdout: A
